- Target System: UniProt:Q92731
- Sequence (Q92731 whole entry): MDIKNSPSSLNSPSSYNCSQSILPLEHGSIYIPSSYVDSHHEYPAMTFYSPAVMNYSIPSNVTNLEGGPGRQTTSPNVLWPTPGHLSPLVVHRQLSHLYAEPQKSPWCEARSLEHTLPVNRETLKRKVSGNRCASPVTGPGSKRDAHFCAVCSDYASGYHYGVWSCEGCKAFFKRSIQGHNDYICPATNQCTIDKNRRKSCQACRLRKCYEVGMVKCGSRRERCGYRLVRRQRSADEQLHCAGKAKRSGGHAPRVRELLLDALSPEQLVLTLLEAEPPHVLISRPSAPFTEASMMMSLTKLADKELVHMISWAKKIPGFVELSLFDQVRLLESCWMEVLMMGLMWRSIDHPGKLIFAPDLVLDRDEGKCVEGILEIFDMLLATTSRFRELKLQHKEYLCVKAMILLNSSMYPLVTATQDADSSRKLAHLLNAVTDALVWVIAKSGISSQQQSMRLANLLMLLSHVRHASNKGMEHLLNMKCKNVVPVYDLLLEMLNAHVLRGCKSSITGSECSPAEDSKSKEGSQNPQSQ
- Condition Context: filed as antagonist
- Description: Relative binding affinity to ERbeta (unknown origin)
Each item that follows carries a reported log(RBA).

Compound | Target System | log(RBA)
O=C(c1ccc(OCCN2CCCCC2)cc1)c1c(-c2ccc(O)cc2)sc2cc(O)ccc12 [RALOXIFENE] | UniProt:Q92731 | 0.08
CNCCOc1ccc(N2Nc3c(c(=O)oc4cc(O)ccc34)-c3ccc(O)cc32)cc1 | UniProt:Q92731 | 0.49
Nc1ccc(-c2c(C(=O)c3ccc(OCCNS(=O)(=O)O)cc3)c3ccc(O)cc3oc2=O)cc1 | UniProt:Q92731 | 0.05
O=C(c1ccc(OCCN2C=Cc3ccccc3C2)cc1)c1c(-c2ccc(O)cc2)oc(=O)c2cc(O)ccc12 | UniProt:Q92731 | 0.32
CC(CN1CCCC2CCCNC21)OCC(=O)N1Nc2cc(O)ccc2C2COc3cc(O)ccc3C21 (stereo unspecified) | UniProt:Q92731 | 0.12
O=C(c1ccc(OCCN2C(=O)CCC2=O)cc1)c1c(-c2ccc(O)cc2)oc(=O)c2cc(O)ccc12 | UniProt:Q92731 | 0.19
O=C(COCN1CCCCC1)CN1Nc2cc(O)ccc2-c2c1c1ccc(O)cc1oc2=O | UniProt:Q92731 | 0.01
Nc1ccc(-c2c(C(=O)c3ccc(OCCN4CC(C(=O)O)=CCC4=O)cc3)c3ccc(O)cc3[nH]c2=O)cc1 | UniProt:Q92731 | 0.09
Cc1cc(C(=O)CNc2c(-c3ccc(O)cc3)c(=O)oc3cc(O)ccc23)ccc1OCCN1CCC=C(C(=O)O)C1 | UniProt:Q92731 | -0.06
O=C(COCN1CCCCC1)CN1Nc2c(c(=O)oc3cc(O)ccc23)-c2ccc(O)cc21 | UniProt:Q92731 | 0.38
Cc1cc(N2Nc3c(c(=O)oc4cc(O)ccc34)-c3ccc(O)cc32)ccc1OCCN1CCC=C(C(=O)O)C1 | UniProt:Q92731 | 0.29
